- Test system: SNB-75
- TEST METHOD NOTES: The IC50 value was measured on SNB-75 cell line in CNS tumor type.
- Format: functional, cell-based
- RECORDED CONDITIONS: Homo sapiens
pIC50: −log10 of the molar value.
METRIC: pIC50

{"columns": ["MOLECULE", "REPORTED RESULT"],
 "data": [
  ["Nc1nc(N)c2nc(CNc3ccc(C(=O)NC(CCNC(=O)c4ccccc4C(=O)O)C(=O)O)cc3)cnc2n1 (stereo not drawn)", "< 6.00"],
  ["Nc1nc(N)c2nc(CNc3ccc(C(=O)NC(CCCNC(=O)c4ccccc4C(=O)O)C(=O)O)cc3)cnc2n1 (stereo not drawn)", "< 5.00"],
  ["CN(Cc1cnc2nc(N)nc(N)c2n1)c1ccc(C(=O)N[C@@H](CCC(=O)O)C(=O)O)cc1 [METHOTREXATE]", "< 5.00"]
]}
